Tested on: HCT-116
Protocol summary: Cytostatic activity against p53-deficient human HCT116 cells after 72 hrs by MTT assay
Format: functional, cell-based
Test context: HCT-116, 72 h
Let's look at some molecules and their measured IC50.

Look over these answered cases.
Input: Report IC50 for `Nc1nc2c(c(-c3cc4ccccc4o3)cn2[C@@H]2O[C@H](CO)[C@@H](O)[C@H]2O)c(=O)[nH]1`
Output: > 100 µM

Input: Report IC50 for `CNc1ncnc2c1c(-c1ccco1)cn2[C@@H]1O[C@H](CO)[C@@H](O)[C@H]1O`
Output: 0.44 µM

Input: Report IC50 for `C#Cc1cn([C@@H]2O[C@H](CO)[C@@H](O)[C@H]2O)c2ncnc(C)c12`
Output: > 20 µM

Continuing:
Input: Report IC50 for `Cc1nc(N)c2c(-c3ccoc3)cn([C@@H]3O[C@H](CO)[C@@H](O)[C@H]3O)c2n1`
Output: > 20 µM

Input: Report IC50 for `CSc1ncnc2c1c(-c1ccccc1)cn2[C@@H]1O[C@H](CO)[C@@H](O)[C@H]1O`
Output: > 20 µM

----------
Test system: HCT-116
Protocol summary: Cytostatic activity against p53-deficient human HCT116 cells after 72 hrs by MTT assay
Format: functional, cell-based
Test context: HCT-116, 72 h
pIC50: −log10 of the molar value.
Let's look at some molecules and their measured pIC50.

Look over these answered cases.
Input: Report pIC50 for `Cc1ncnc2c1c(-c1ccsc1)cn2[C@@H]1O[C@H](CO)[C@@H](O)[C@H]1O`
Output: 5.84

Input: Report pIC50 for `CSc1ncnc2c1c(-c1ccoc1)cn2[C@@H]1O[C@H](CO)[C@@H](O)[C@H]1O`
Output: 7.00

Input: Report pIC50 for `Cc1ncnc2c1c(-c1ccoc1)cn2[C@@H]1O[C@H](CO)[C@@H](O)[C@H]1O`
Output: < 4.70

Continuing:
Input: Report pIC50 for `C#Cc1cn([C@@H]2O[C@H](CO)[C@@H](O)[C@H]2O)c2ncnc(NC)c12`
Output: < 4.70

Input: Report pIC50 for `CNc1ncnc2c1c(-c1cccs1)cn2[C@@H]1O[C@H](CO)[C@@H](O)[C@H]1O`
Output: < 4.70

Input: Report pIC50 for `Nc1nc(N)c2c(-c3ccsc3)cn([C@@H]3O[C@H](CO)[C@@H](O)[C@H]3O)c2n1`
Output: < 4.70

----------
Tested on: K562
Protocol summary: Cytostatic activity against human K562 cells after 72 hrs by MTT assay
Format: functional, cell-based
Test context: K562, 72 h
Let's look at some molecules and their measured IC50.
Use µM as the unit, but write only the number.

Input: Report IC50 for `O=c1[nH]cnc2c1c(-c1ccoc1)cn2[C@@H]1O[C@H](CO)[C@@H](O)[C@H]1O`
Output: 12.5

Kindly consider the entry below.
Input: Report IC50 for `Cc1ncnc2c1ccn2[C@@H]1O[C@H](CO)[C@@H](O)[C@H]1O`
Output: 0.01

----------
Test system: Hepatitis C virus
Protocol summary: Antiviral activity against Hepatitis C virus subtype 1b infected in human HuH7 cells
Assay type: functional, organism-based, Hepacivirus hominis
Test context: genotype 1b, Huh-7
Reported property: EC50

Look over these answered cases.
Input: # return EC50 for `CN(C)c1ncnc2c1c(I)cn2[C@@H]1O[C@H](CO)[C@@H](O)[C@H]1O` , test system: Hepatitis C virus
Output: 0.69 µM

Input: # return EC50 for `O=c1[nH]cnc2c1c(-c1ccoc1)cn2[C@@H]1O[C@H](CO)[C@@H](O)[C@H]1O` , test system: Hepatitis C virus
Output: 4.54 µM

Continuing:
Input: # return EC50 for `COc1ncnc2c1c(-c1cc3ccccc3o1)cn2[C@@H]1O[C@H](CO)[C@@H](O)[C@H]1O` , test system: Hepatitis C virus
Output: 2.64 µM

Input: # return EC50 for `Cc1ncnc2c1c(-c1cc3ccccc3o1)cn2[C@@H]1O[C@H](CO)[C@@H](O)[C@H]1O` , test system: Hepatitis C virus
Output: 6.76 µM

Input: # return EC50 for `Cc1ncnc2c1c(-c1ccccc1)cn2[C@@H]1O[C@H](CO)[C@@H](O)[C@H]1O` , test system: Hepatitis C virus
Output: 34.8 µM

Input: # return EC50 for `Nc1nc2c(c(-c3ccsc3)cn2[C@@H]2O[C@H](CO)[C@@H](O)[C@H]2O)c(=O)[nH]1` , test system: Hepatitis C virus
Output: > 44 µM

Input: # return EC50 for `Cc1nc(N)c2c(-c3ccoc3)cn([C@@H]3O[C@H](CO)[C@@H](O)[C@H]3O)c2n1` , test system: Hepatitis C virus
Output: > 44 µM

Input: # return EC50 for `C#Cc1cn([C@@H]2O[C@H](CO)[C@@H](O)[C@H]2O)c2ncnc(SC)c12` , test system: Hepatitis C virus
Output: 0.21 µM
